ASSAY PROTOCOL: Determination of the log P values by HPLC (formic acid method)
Assay type: physicochemical
DETAILS: reversed-phase column (C 18), acidic range (pH 3.4), 55° C.
METRIC: log P

P. Cc1cnoc1C(=O)Nc1ccn(-c2c(F)cccc2F)n1
Q. Cn1nc(C(C)(C)C)c(Cl)c1C(=O)Nc1ccn(-c2c(F)cccc2F)n1
Returns: the label, P or Q , whose recorded log P is the lower number. // caller expects the label of the chosen entry
P

1. O=C(Nc1ccn(-c2c(F)cccc2F)n1)c1cccc(F)c1C(F)(F)F
2. CS(=O)(=O)c1ccccc1C(=O)Nc1ccn(-c2ncc(F)cc2F)n1
Returns: the label, 1 or 2 , whose recorded log P is the lower number. // caller expects the label of the chosen entry
2

A. O=C(Nc1nn(-c2ccccc2Cl)cc1I)c1ccccc1Cl
B. Cn1cc(C(=O)Nc2ccn(-c3c(F)cccc3F)n2)c(I)n1
# returns the entry with the larger log P; inputs A and B // caller expects the label of the chosen entry
A
(A: 3.01, B: 2.03)

All values here come from patent US9802899B2.
